Target: T1, Human Galectin-3 protein (Acro Biosystems, GA3-H5129) (human, UniProt P17931 2-250)
T1 construct: Bought protein; also called hGal3; Gal3; not shown: linker-spaced 6-histidine tag
T1 sequence (P17931 2-250): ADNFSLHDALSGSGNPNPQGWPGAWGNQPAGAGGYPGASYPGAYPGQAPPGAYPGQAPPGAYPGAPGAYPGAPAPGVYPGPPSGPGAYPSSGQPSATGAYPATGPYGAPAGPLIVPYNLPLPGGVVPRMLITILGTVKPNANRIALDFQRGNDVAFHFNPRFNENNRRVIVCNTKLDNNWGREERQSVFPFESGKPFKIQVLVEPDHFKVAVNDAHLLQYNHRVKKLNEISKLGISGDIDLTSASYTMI
Assay: ELISA, hGal3 coated, antibody 3 ug/mL, competitor hTIM3
endpointLabel: GAL3-TIM3 Blocking @ 3 ug/mL (%)
Give just the numeric value; % need not be written.

Example entries begin here.
12G5.D7 (antibody, V domains shown, murine antibody) VH: QVQLKQSGAELVRPGASVKLSCKASGYTFTDYYINWVKQRPGQGLEWIARIYPGTGNTDYNEKFKGRATLTAEKSSSTAYMQLSSLTSEDSAVYFCARFAYYYGSGGYFDYWGHGTTLTVSS VL: DILMTQSPSSMSVSLGDTVSITCHASQGINSNMGWLQQKPGKSFKGLIYHATNLEDGVPSRFSGSGSGADYSLTISSLESEDFADYYCVQYAQFPPTFGSGTKLEIK    12
13G4.2F8 (antibody, V domains shown, murine antibody) VH: QVQLQQPGAELVKPGASVKLSCKASGYTFTSYWMHWVKQRPGQGLEWIGMIHPNSGSTDYNEKFKNKATLNVDKSSSTAYIQLSSLTSEDSAVYYCTRWGIYYYARDYWGQGTTLTVSS VL: DIVMTQSQKFMSTSVGERVSITCKASQNVGTNVAWYQQKAGQSLELLIYGASNRHTGVPDRFTGSGSGTDFTLTITNVQSEDMTNYFCEQYSNFPLTFGAGTKLELK    0
2D10.2B2 (antibody, V domains shown, murine antibody) VH: QVQLQQSGPELVKPGASVKISCKASGYTFTDYYINWVKQRPGQGLEWIGWIYPGSNDTKYNEKFKGKATLTVDTSSSTAYMQLGSLTSEDSAVYFCANYFGCSGWFFDVWGTGTTVTVSS VL: DIVMTQAAFSNPVTLGTSASISCRSSKSLLHSDGITYLYWYLQRPGQSPQLLIYRMSNLASGVPDRFSGSGSGTDFTLRISRVEAEDVGVYYCAQMIEFPLTFGAGTILELK    86
6H6.2D6 (antibody, V domains shown, murine antibody) VH: QIQLVQSGPELKKPGETVKISCKASGYTFTTYGMSWVKQAPGKGLKWMAWINTYSGVPTYADDFKGRFAFSLETSASTAYLQINNLTNEDTATYFCARGPYAMDYWGQGTSVTVSS VL: DIQMTQTTSSLSASLGDRVTISCSASQGISNYLNWYQQKPDGTVKLLIYYTSSLHSGVPSRFSGSGSGTDYSLTISNLEPEDIATYYCQQYSELPYTFGSGTKLEIK    82

Proceeding to the next binder to report its GAL3-TIM3 Blocking @ 3 ug/mL.
Exercise: Recorded GAL3-TIM3 Blocking @ 3 ug/mL of 846.1F5 (antibody, V domains shown, murine antibody) VH: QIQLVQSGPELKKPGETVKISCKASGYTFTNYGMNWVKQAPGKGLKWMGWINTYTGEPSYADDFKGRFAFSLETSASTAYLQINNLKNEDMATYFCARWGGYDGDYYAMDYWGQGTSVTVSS VL: NIMMTQSPSSLAVSAGEKVTMSCKSSQSVLYSSNQKNYLAWYQQKPGQSPKLLIYWASTRESGVPDRFTGSGSGTDFTLTISSVQPEDLAVYYCHQYLSSLTFGAGTKLELK , please.
Solution: 90
